Origin of the recorded values: ChEMBL document CHEMBL1201862

Tested on: SW-620
Test: NCI tumour cell line growth inhibition, 48 h
The source made the active and inactive calls. Cut-off read from the data, not from the text of the source: active = GI50 up to about 1.1 µM and inactive = higher.
assay metric: GI50

Would you please look over these solved cases?
molecule: CCCCCCc1cc(C=O)sc1-c1ccc(-c2sc(-c3ccc(-c4ccc(-c5cc(CCCCCC)c(-c6ccc(-c7sc(C=O)cc7CCCCCC)s6)s5)s4)s3)cc2CCCCCC)s1
GI50: > 100 µM (inactive)

molecule: O=C(COc1ccc(Cl)c(Cl)c1)N(Cc1ccccc1)Cc1ccc[n+](Cc2ccc(Cl)cc2S(=O)(=O)F)c1
GI50: 54.2 µM (inactive)

molecule: CSc1cc(-c2cc3ccccc3o2)oc(=O)c1C#N
GI50: > 100 µM (inactive)

molecule: CCCCCCCCCCCCCCCCCc1cc(Cl)nc(Cl)n1
GI50: > 100 µM (inactive)

molecule: Cc1ccc(S(=O)(=O)c2c(O)c3ccc(O)c(C)c3oc2=O)cc1
GI50: > 100 µM (inactive)

molecule: CCN(CC)c1ccc(/N=N/c2ccc(-c3nc4cccn(C)c-4n3)cc2)cc1
GI50: 7.36 µM (inactive)

molecule: CN/N=C(\C(=O)Nc1ccc(C(F)(F)F)cc1[N+](=O)[O-])C(c1cnc2ccc([N+](=O)[O-])cc2n1)[N+](=O)[O-] (centres undefined)
GI50: 46 µM (inactive)

molecule: CC(C)=CCC/C(C)=C/CCC1(C)C=Cc2c(c3ccccc3oc2=O)O1 (centres undefined)
GI50: 19.4 µM (inactive)

# GI50 of "COCn1cnc2c(=O)n(-c3ccc(C)cc3)c(=S)n(-c3ccc(C)cc3)c21" = > 100 µM (inactive)

----------
Catalogue of compounds with associated GI50
Test system: SW-620
Test: NCI tumour cell line growth inhibition, 48 h
Active and inactive are the calls of the source. Cut-off read from the data, not from the text of the source: active = GI50 up to about 1.1 µM and inactive = higher.

A selection of reference data follows.
compound: COc1ccccc1C1SCC(=O)N1c1ccc(-c2ccc(-n3c(-c4ccccc4)nc4ccccc4c3=O)cc2)cc1 (centres undefined)
system name: SW-620
GI50: > 100 µM (inactive)
--
compound: O=[N+]([O-])c1ccc(CSc2nn(Cc3ccc([N+](=O)[O-])cc3)cc3ncnc2-3)cc1
system name: SW-620
GI50: 21.7 µM (inactive)

Short answer for "Cc1cc(C)c(C2=NO[C@@H]3C(=O)N(c4ccc(Cc5ccc(N6C(=O)[C@H]7C(c8c(C)cc(C)cc8C)=NO[C@H]7C6=O)cc5)cc4)C(=O)[C@H]23)c(C)c1" : GI50 was > 100 µM (inactive)

GI50 in this record for "CN1CCN(P2(=S)Oc3ccc4ccccc4c3-c3c(ccc4ccccc34)O2)CC1" : 39 µM (inactive)

----------
Test system: IGROV-1
Experiment: NCI tumour cell line growth inhibition, 48 h
The source made the active and inactive calls. No stated cut-off is given here; in the data, active = GI50 up to about 1.1 µM and inactive = higher.
assay metric: GI50

molecule: CCn1cnc2c(NC(C)=O)ncnc21
system name: IGROV-1
reported value: > 100 µM (inactive)
//
molecule: CC(=O)/N=C1\NC(=O)/C(=C/c2ccc(/C=C3/C(=O)N/C(=N\C(C)=O)N3C)cc2)N1C
system name: IGROV-1
reported value: > 100 µM (inactive)
//
molecule: CCOc1nc(N)nc(C)c1/N=N/c1ccc(Cl)cc1
system name: IGROV-1
reported value: > 100 µM (inactive)
//
molecule: CC1=C(C(=O)OCCc2ccc([N+](=O)[O-])cc2)C(c2cccc([N+](=O)[O-])c2)C(C(=O)OC(C)C)=C(C)N1 (stereo not given)
system name: IGROV-1
reported value: 9.53 µM (inactive)
//
molecule: CCOC(=O)/C=C/c1c(C)[nH]c(=O)[nH]c1=O
system name: IGROV-1
reported value: > 250 µM (inactive)

Item: OC1[C@H](O)CN(OCc2ccccc2)C[C@@H]1O (stereo not given in full) | System: IGROV-1 | GI50: > 100 µM (inactive)

Fill in: IGROV-1 GI50 for CCO/C=C/C(C)C1(C(=O)OCC)CCCCC1=O (stereo not given) = > 100 µM (inactive)

Recorded GI50 for "O=C(O)c1nc(-c2ccccc2)[nH]c1C(=O)O" on IGROV-1 was 11.7 µM (inactive)

Entry "COc1ccc(OC)c(NC(=O)CCC/C(CC(=O)c2ccc(O)c(OC)c2)=N\Nc2ccc([N+](=O)[O-])cc2)c1" : GI50 on IGROV-1 = > 100 µM (inactive)

Observed GI50, IGROV-1, "CCCCCCCCCCCCOP(N)(=O)OCCCCCCCCCCCC" : > 100 µM (inactive)

----------
System: RXF 393
Assay: NCI tumour cell line growth inhibition, 48 h
Active and inactive are the calls of the source. Rule as the data show it: active = GI50 up to about 1.1 µM and inactive = higher.
assay metric: GI50

Reference set, count: 5
compound: COc1ccc(C2Oc3c(c(O)cc4c3[C@H](c3ccc(O)cc3O)[C@H](O)C(c3ccc(O)c(O)c3)O4)C[C@@H]2O)cc1O (stereo not given in full)
system name: RXF 393
GI50: > 100 µM (inactive)
//
compound: C=C(CN(C)C)C(=O)c1ccccc1[N+](=O)[O-]
system name: RXF 393
GI50: 16.1 µM (inactive)
//
compound: O=[N+]([O-])c1cc(/N=N/c2c(O)ccc3cc(S(=O)(=O)O)ccc23)c(O)c([N+](=O)[O-])c1
system name: RXF 393
GI50: > 100 µM (inactive)
//
compound: Cc1cccc(NC(=O)CCl)c1
system name: RXF 393
GI50: 8.49 µM (inactive)
//
compound: CCOc1ccccc1N1C(=O)C(=O)C(c2nc3ccccc3s2)C(=O)C1=O
system name: RXF 393
GI50: > 100 µM (inactive)

RXF 393 assay, compound "CN(CCCNc1ccc2ncn3c4ccccc4c(=O)c1c23)CCCN1C(=O)c2cccc3cc([N+](=O)[O-])cc(c23)C1=O" , recorded GI50 = 0.0267 µM (active)

Observed GI50, RXF 393, COC(CCC[N+](C)(C)C)CC[N+](C)(C)C (stereo not given) : > 100 µM (inactive)

Reported RXF 393 GI50 for item N#CCC(=O)N/N=C1/C(=O)NC(=O)C(=O)C1c1nc2ccccc2s1 (stereo not given) was > 100 µM (inactive)

Entry CC[C@]12C=CCN3CC[C@@]4(c5cc(Br)c(OC)cc5N(C)[C@H]4[C@@](O)(C(=O)NC(Cc4c[nH]c5ccccc45)C(=O)OC)[C@@H]1O)[C@@H]32 (stereo not given in full) : GI50 on RXF 393 = 19.1 µM (inactive)

Hey, RXF 393 data for "c1ccc(COc2nc3cc(C45CC6CC(CC(C6)C4)C5)ccc3[nH]2)cc1" : GI50 came out at 11.3 µM (inactive)

----------
Test system: SW-620
Experiment: NCI tumour cell line growth inhibition, 48 h
The source made the active and inactive calls. Cut-off read from the data, not from the text of the source: active = GI50 up to about 1.1 µM and inactive = higher.
The entries below are paired with their reported GI50.

So for Cc1cc(-c2nc3ccc(F)cc3s2)ccc1NC(=O)C(N)CCCCN (stereo not drawn) , the logged GI50 turned out to be 2.9 µM (inactive)

Sample CCOP(=O)(OCC)C1C(=O)O[C@H]2CCCC[C@@H]12 (stereo partly drawn) ; GI50 observed: > 100 µM (inactive)

Entry COC1=CC(=O)N(C)C(O)C1(C#N)OC1OC(CO)C(O)C(O)C1O (stereo not drawn) , GI50 reported as > 100 µM (inactive)

For reference, reported GI50 for "O=[N+]([O-])c1cc2oc(COc3ccccc3)nc2cc1Cl" stands at 43.2 µM (inactive)

// "c1ccc(COc2nc3cc(C45CC6CC(CC(C6)C4)C5)ccc3[nH]2)cc1" : GI50 value = 21.4 µM (inactive)

Value of GI50 reported for the molecule "Cc1cccc(NC(=O)CCl)c1" is > 10 µM (inactive)

----------
Tested on: OVCAR-4
Test: NCI tumour cell line growth inhibition, 48 h
Active and inactive are the calls of the source. Cut-off read from the data, not from the text of the source: active = GI50 up to about 1.1 µM and inactive = higher.
The reply should be one of these categories: 1 (active), -1 (inactive)

Past entries and their recorded results:
compound: CC1(C)CCCCCCCCCC(C)(CCCCCCCCCCCCO)C1=O (centres undefined)
label value: -1
--
compound: O=CN1CCN(CC(O)CN2CCCCC2)CC1 (centres undefined)
label value: -1
--
compound: CC(=O)O[C@H]1CC[C@@]2(C)C(=CC[C@@H]3C2CC[C@]2(C)Nc4[nH]ncc4CC32)C1 (some centres undefined)
label value: -1
--
compound: N#Cc1c(-c2ccc(Cl)cc2)[nH]c(=O)n(C2OC(CO)C(O)C(O)C2O)c1=O (centres undefined)
label value: -1
--
compound: CN1CCN(c2ccc3[nH]c(-c4ccc5[nH]c(-c6ccc(N(C)CCCl)cc6)nc5c4)nc3c2)CC1
label value: 1
--
compound: O=C(O)CCC[C@]1(O)O[C@@]2(CCCC2=O)[C@]2(O)CCC[C@@]21O
label value: -1

Q: Kindly provide the recorded test outcome for the following compound: COc1ccc(C2Oc3c(c(O)cc4c3[C@H](c3ccc(O)cc3O)[C@H](O)C(c3ccc(O)c(O)c3)O4)C[C@@H]2O)cc1O (some centres undefined)
Ans: -1

Q: Status in this test for "C[N+]1(CCCCN2c3ccccc3Sc3cc(N=[N+]=[N-])ccc32)CCN(C(=O)CCNC(=O)Cc2ccc(C(=O)c3ccccc3)cc2)CC1" ?
Ans: -1

Q: Check the results log: what was the call for "CC(=O)Nc1ccc(C(=O)N2N=C(C)/C(=C\c3c(O)ccc4ccccc34)C2=O)cc1" ?
Ans: -1
